Assay: MultiTox-Fluor Cytotoxicity Assay - LYMP1-001 - Dead Cells (AID 946);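 also: cells exposed to compound for 16 h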
Settings: LYMP1-001 lymphoblastoid cells, dead-cell protease fluorescence; series mostly up to 92.2 µM
Results filed as inconclusive are left out. Calls of active or inactive are those of the source. Calls follow the shape of the dose curve; as a rule, active = well fitted cell-killing curve with a large enough effect; inconclusive = small, poorly fitted or top-dose-only effect, or effect the other way; inactive = flat fitted curve, though single readings scatter.
Give your call using only these classes: active, inactive

Known results for molecules:
C=CCc1ccc(O)c(OC)c1 :: inactive
CC(O)C(=O)O (stereo unspecified) :: inactive
O=C(O)CCCCC(=O)O :: inactive
C[C@]12CC[C@@H]3c4ccc(O)cc4CC[C@H]3[C@@H]1CC[C@@H]2O :: inactive
Oc1c(I)cc(Cl)c2cccnc12 :: inactive
NC(=NCCCCCCN=C(N)/N=C(\N)Nc1ccc(Cl)cc1)/N=C(\N)Nc1ccc(Cl)cc1 :: active
COc1cccc2c1C(=O)c1c(O)c3c(c(O)c1C2=O)C[C@@](O)(C(C)=O)C[C@@H]3O[C@H]1C[C@H](N)[C@H](O)[C@H](C)O1 :: active
Oc1c(Cl)cc(Cl)cc1Sc1cc(Cl)cc(Cl)c1O :: inactive

Recorded test call requested for COC1=CC(=O)C[C@@H](C)[C@]12Oc1c(Cl)c(OC)cc(OC)c1C2=O inactive

Repeat with O=C1OC(c2ccc(O)cc2)(c2ccc(O)cc2)c2ccccc21 inactive

Please do the same for CC(=O)Oc1ccc(C(c2ccc(OC(C)=O)cc2)c2ccccn2)cc1 as well. inactive

---

Assay: Cellular Toxicity (caspase-3) SK-N-SH (AID 661);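 also: cells exposed to compound for 16 hours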
Details: SK-N-SH caspase-3 activation, qHTS; series mostly up to 91.7 µM
Activity calls are given as the source filed them. The call rests on the fitted dose curve; in most records, active means well fitted activation curve with a large enough effect; inconclusive means small, poorly fitted or top-dose-only effect; inactive means flat fitted curve, though single readings scatter. Numbered stars: 1 amine (or outer) side, 2 acyl side, 3 side chain; on linkers, the order of the positions; unused ones are H or OH. Bridge positions count the residues as written; N and C are the ends. Square brackets hold non-standard residues; d marks the D form. Peptide text beside a SMILES is read from it. I, II: the chains in the order shown. Actinocin(9to1) = Cc1c2oc3c(C)ccc(C(=O)[*:1])c3nc-2c(C(=O)[*:2])c(N)c1=O; NMeV = CN[C@H](C(=O)O)C(C)C; Sar = CNCC(=O)O
Respond with a class label; see active, inactive

Use these answered entries as a reference point.
C[C@]12CC[C@@H]3c4ccc(O)cc4CC[C@H]3[C@@H]1CC[C@@H]2O :: inactive
Nc1ccc(C(=O)O)cc1 :: inactive
CC(O)C(=O)O (centres undefined) :: inactive
O=C1OC(c2ccc(O)cc2)(c2ccc(O)cc2)c2ccccc21 :: inactive
O=c1ccc2ccccc2o1 :: inactive
Oc1ccc(O)cc1 :: inactive
COC1=CC(=O)C[C@@H](C)[C@]12Oc1c(Cl)c(OC)cc(OC)c1C2=O :: inactive
Oc1c(I)cc(Cl)c2cccnc12 :: inactive

Short answer needed: outcome of this test for CC/C(=C(/CC)c1ccc(O)cc1)c1ccc(O)cc1 ? inactive

Next record, please: CC(=O)O[C@]1(C(C)=O)CC[C@H]2[C@@H]3C[C@H](C)C4=CC(=O)CC[C@]4(C)[C@H]3CC[C@@]21C inactive

One more molecule: Cc1c2oc3c(C)ccc(C(=O)N[C@@H]4C(=O)N[C@H](C(C)C)C(=O)N5CCC[C@H]5C(=O)N(C)CC(=O)N(C)[C@@H](C(C)C)C(=O)O[C@@H]4C)c3nc-2c(C(=O)N[C@@H]2C(=O)N[C@H](C(C)C)C(=O)N3CCC[C@H]3C(=O)N(C)CC(=O)N(C)[C@@H](C(C)C)C(=O)O[C@@H]2C)c(N)c1=O (I: T[dV]P[Sar][NMeV] / II: T[dV]P[Sar][NMeV]; ester I:1-I:C, II:1-II:C; linker I:N-II:N via Actinocin(9to1)) active

Can you check NC(=NCCCCCCN=C(N)/N=C(\N)Nc1ccc(Cl)cc1)/N=C(\N)Nc1ccc(Cl)cc1 next? inactive

Cool, now COc1cccc2c1C(=O)c1c(O)c3c(c(O)c1C2=O)C[C@@](O)(C(=O)CO)C[C@@H]3O[C@H]1C[C@H](N)[C@H](O)[C@H](C)O1 active

// same read-out, input: CC(=O)Oc1ccc(C(c2ccc(OC(C)=O)cc2)c2ccccn2)cc1 inactive
